# experiment: reversal of MRP1-mediated doxorubicin resistance, pilot screen, H69AR cells, doxorubicin co-treatment (AID 601)
# condition.summary: H69AR cells, CellTiter-Glo, 72 h; compound alone cytotoxicity; at 10 µM
recorded.metric: viability (%)
Write down the numeric answer in % and omit the unit.

In [3]: df
Out[3]:
                                   compound  recorded_metric  units_symbol  observed_result
0  CCN(c1ccc(OC)cc1)S(=O)(=O)c1ccc2c(c1)CCN2C(=O)CCC(=O)O        viability             %             92.4
1                    Cc1nc(-c2cccc(N)c2)cs1        viability             %              103
2              Cc1nn(-c2ccccc2)c(C)c1/C=N/O        viability             %             96.5
3             COCCSc1ccccc1C(=O)Nc1cc(C)on1        viability             %             94.5
4         Cn1cnnc1SCC(=O)Nc1ccccc1Sc1ccccc1        viability             %             98.8
5  CC1(C)C(=O)Nc2ccccc2N1C(=O)COC(=O)Cn1cnc2ccccc2c1=O        viability             %             96.3
6  CCN1CCCC1CN=Cc1c(O)n(-c2ccccc2)c(=O)c2ccccc12 (centres undefined)        viability             %             92.9
7             O=C(CCC(=O)c1cccs1)NCc1ccccc1        viability             %             97.8
8              O=C(CSc1nc2ccccc2s1)N1CCOCC1        viability             %             90.4
9  CCN(Cc1ccccc1)C(c1ccncc1)c1nnnn1C(C)(C)C (centres undefined)        viability             %             78.6

Task: What does the record list as viability for COc1cc(NC(=O)c2cc(OC)c(OC)c(OC)c2)c(OC)cc1NC(=O)CN1CCCCC1 ?
Output: 65.9

Task: Same question for O=C(c1ccco1)N1CCN(/C(=N/S(=O)(=O)c2cccs2)c2ccccc2Cl)CC1 please.
Output: 93.1

Task: Same question for Cc1cc(NC(=O)Cn2cnc3c2c(=O)n(C)c(=O)n3C)n(-c2ccccc2)n1 please.
Output: 108

Task: Same question for CN1CCCN(C(=O)c2cc(=O)[nH]c3ccccc23)c2nc3ccccc3nc21 please.
Output: 79.9

----------
Below, each entry is listed alongside its reported viability.
# experiment: growth inhibitors of H69AR lung tumor, primary screen, human, duplicate replicates (AID 580);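 also: 100% = mean luminescence of untreated wells and 0% = no signal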
# condition.summary: H69AR lung tumor cells viability, ATP luminescence, 72 h; at 10 µM; stronger effect = lower value
Write down the numeric answer in % and omit the unit.

Below, 2 compounds whose answers are already recorded.
                                   compound  observed_result
0  CS(=O)(=O)N1CCCC(C(=O)NCCCN2CCC(Cc3ccccc3)CC2)C1 (configuration not stated)              103
1                COc1ccccc1OCC(=O)N1CCNC1=O              102

Task: What does the record list as viability for CCn1c(SCC(=O)Nc2ccc(C(C)=O)cc2)nc2ccccc21 ?
Output: 83.1

Task: Same question for O=C(CN1C(=O)NC2(CCCCCC2)C1=O)N1CCC(Cc2ccccc2)CC1 please.
Output: 86.7

Task: Same question for COc1ccc2oc(=O)c(C(=O)N3CCN(c4ccccc4F)CC3)cc2c1 please.
Output: 88.1

Task: Same question for COc1ccc(-c2cc(C(F)(F)F)nc(SCC(=O)NCc3ccco3)n2)cc1OC please.
Output: 55.2
